Parameter 'readout' = AC50; parameter 'system' = Alpha-2B adrenergic receptor (Homo sapiens). Further: assay procedure not described here.
Sequence (P18089 whole entry): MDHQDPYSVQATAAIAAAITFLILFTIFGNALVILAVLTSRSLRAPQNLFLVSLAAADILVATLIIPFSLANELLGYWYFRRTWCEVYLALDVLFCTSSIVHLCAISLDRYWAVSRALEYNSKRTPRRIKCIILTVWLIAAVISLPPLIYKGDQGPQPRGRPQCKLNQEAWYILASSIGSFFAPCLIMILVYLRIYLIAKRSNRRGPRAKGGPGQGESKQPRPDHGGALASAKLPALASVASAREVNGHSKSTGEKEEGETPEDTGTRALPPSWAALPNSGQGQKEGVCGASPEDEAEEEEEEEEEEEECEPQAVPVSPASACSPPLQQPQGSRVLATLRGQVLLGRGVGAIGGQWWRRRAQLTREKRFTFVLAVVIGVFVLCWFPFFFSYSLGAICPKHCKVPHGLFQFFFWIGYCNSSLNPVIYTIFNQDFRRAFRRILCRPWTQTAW
endpointName: AC50

1) O=C(CCCCC(=O)Nc1c(I)cc(I)c(C(=O)O)c1I)Nc1c(I)cc(I)c(C(=O)O)c1I [IODIPAMIDE] : > 10 µM
2) CC(C)Cc1ccc(CC(=O)O)cc1 : > 30 µM
3) NS(=O)(=O)c1cc2c(cc1Cl)NC(CC1CCCC1)NS2(=O)=O (stereo not given) [CYCLOPENTHIAZIDE] : 17 µM
4) O=C(O)CCn1c2c(c3ccccc31)C[C@H](NS(=O)(=O)c1ccc(F)cc1)CC2 : > 10 µM
5) CC(=O)c1ccc2c(c1)N(CCCN1CCN(CCO)CC1)c1ccccc1S2 : 0.056 µM
6) O=C(Cn1ccnc1[N+](=O)[O-])NCc1ccccc1 : > 30 µM
7) CN1CC[C@]23CCCC[C@H]2[C@H]1Cc1ccc(O)cc13 : > 30 µM
8) OCc1cc([C@@H](O)CNCCCCCCOCCOCc2c(Cl)cccc2Cl)ccc1O : > 30 µM
9) Nc1ccc(/N=N/c2ccccc2)c(N)n1 : 3.2 µM
10) CN1CC(=O)N2[C@H](c3ccc4c(c3)OCO4)c3[nH]c4ccccc4c3C[C@@H]2C1=O : > 10 µM
11) Cc1c(Cl)cccc1Nc1ccccc1C(=O)O : > 30 µM
12) COc1ccc(C(=O)N2CCN(c3ccc4c(c3)CCC(=O)N4)CC2)cc1OC : > 30 µM
13) COC(=O)[C@H]1[C@@H](OC(=O)c2ccccc2)C[C@@H]2CC[C@H]1N2C : > 30 µM
14) CN1CCCN=C1COC(=O)C(O)(c1ccccc1)C1CCCCC1 (stereo not given) : > 10 µM
15) C=C1CC[C@@]2(O)[C@H]3Cc4ccc(O)c5c4[C@@]2(CCN3CC2CC2)[C@H]1O5 : > 30 µM
16) CN[C@@H](C)[C@H](O)c1ccccc1 : > 10 µM
17) CC(=O)NS(=O)(=O)c1ccc(N)cc1 [SULFACETAMIDE] : > 10 µM
18) C#CCN[C@@H]1CCc2ccccc21 : 8.79 µM
19) CCCCC(C)(O)C/C=C/[C@H]1[C@H](O)CC(=O)[C@@H]1CCCCCCC(=O)OC (stereo not given in full) : > 30 µM
20) CCCC(=O)N1CCCN(c2nc(N)c3cc(OC)c(OC)cc3n2)CC1 : 1.7 µM

====

# system: UniProt:P06401
# Format: functional
Below, each entry is listed with its recorded AC50.
endpointName: AC50

1) COc1ccc2c(c1)c(CC(=O)OCC(=O)O)c(C)n2C(=O)c1ccc(Cl)cc1 : > 30 µM
2) CC(=O)c1ccc2c(c1)N(CCCN1CCN(CCO)CC1)c1ccccc1S2 : > 3 µM
3) NC[C@H]1O[C@H](O[C@H]2[C@H](O)[C@@H](O[C@H]3O[C@H](CO)[C@@H](O)[C@H](N)[C@H]3O)[C@H](N)C[C@@H]2N)[C@H](O)[C@@H](O)[C@@H]1O : > 10 µM
4) CN1CCC2=C(C1)C(c1ccccc1)c1ccccc12 (centres undefined) : > 30 µM
5) C#CCN(C)[C@H](C)Cc1ccccc1 : > 10 µM
6) Cc1c(O)c(=O)ccn1C : > 30 µM
7) C#CC1(OC(N)=O)CCCCC1 [ETHINAMATE] : > 10 µM
8) CN1C(=O)CC(C)(c2ccccc2)C1=O (centres undefined) [METHSUXIMIDE] : > 10 µM
9) CCCCCCCCCCCC[N+](C)(C)CCOc1ccccc1 : 4.5 µM

====

# system: Adenosine receptor A3 (Homo sapiens); further: assay procedure not described here
# Sequence (P0DMS8 whole entry): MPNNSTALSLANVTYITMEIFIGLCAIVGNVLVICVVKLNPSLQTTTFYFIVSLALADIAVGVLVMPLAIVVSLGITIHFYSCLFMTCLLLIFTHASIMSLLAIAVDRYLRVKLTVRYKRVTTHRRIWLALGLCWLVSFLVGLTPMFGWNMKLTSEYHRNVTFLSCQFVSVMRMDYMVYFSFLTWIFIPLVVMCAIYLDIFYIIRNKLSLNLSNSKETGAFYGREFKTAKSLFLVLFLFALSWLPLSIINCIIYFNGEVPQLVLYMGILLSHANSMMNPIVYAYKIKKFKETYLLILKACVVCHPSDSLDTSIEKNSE
Below, each entry is listed with its recorded AC50.
endpointName: AC50

1) COC(=O)C1=C(C)NC(C)=C(C(=O)OCC(C)C)C1c1ccccc1[N+](=O)[O-] (configuration not stated) : 0.614 µM
2) CCc1nn(CCCN2CCN(c3cccc(Cl)c3)CC2)c(=O)n1CCOc1ccccc1 : 11.9 µM
3) CC(C(=O)O)c1ccc(C(=O)c2cccs2)cc1 (configuration not stated) : > 10 µM
4) CCCCCCCCCCCC[N+](C)(C)CCOc1ccccc1 : 10 µM
5) O=C(C[S+]([O-])C(c1ccccc1)c1ccccc1)NO (configuration not stated) : > 30 µM
6) CC(C)C(=O)Nc1ccc([N+](=O)[O-])c(C(F)(F)F)c1 [FLUTAMIDE] : > 30 µM
7) CN(C/C=C/c1ccccc1)Cc1cccc2ccccc12 : > 30 µM
8) Cc1cc(-c2ccccc2)nnc1NCCN1CCOCC1 : > 30 µM
9) CCOC(=O)[C@H](CCc1ccccc1)N[C@H]1CCCN2CCC[C@@H](C(=O)O)N2C1=O : > 30 µM
10) CCCCN1CCCCC1C(=O)Nc1c(C)cccc1C (configuration not stated) : > 30 µM
11) Oc1ncnc2[nH]ncc12 : > 30 µM
12) Nc1nc(N)c2nc(-c3ccccc3)c(N)nc2n1 : > 30 µM
13) CC(=O)O[C@]1(C(C)=O)CC[C@H]2[C@@H]3C[C@H](C)C4=CC(=O)CC[C@]4(C)[C@H]3CC[C@@]21C [MEDROXYPROGESTERONE ACETATE] : > 30 µM
14) CC(C)(C(=O)c1cccnc1)c1cccnc1 : > 10 µM
15) CC(C(O)c1ccc(O)cc1)N1CCC(Cc2ccccc2)CC1 (configuration not stated) : > 30 µM
16) O=P(O)(O)C(O)(Cc1cccnc1)P(=O)(O)O : > 30 µM
17) CCCOc1ccc(C(=O)OCCN(CC)CC)cc1N : > 30 µM
18) C=C1C[C@@H]2[C@H](CC[C@]3(C)C(=O)CC[C@@H]23)[C@@]2(C)C=CC(=O)C=C12 : > 30 µM
19) C1COC(NC(C2CC2)C2CC2)=N1 : > 30 µM
20) NS(=O)(=O)c1cc2c(cc1Cl)NCNS2(=O)=O [HYDROCHLOROTHIAZIDE] : > 30 µM
21) CCCC(=O)N1CCCN(c2nc(N)c3cc(OC)c(OC)cc3n2)CC1 : > 30 µM
22) CC(C)NCC(O)COc1ccc(COCCOC(C)C)cc1 (configuration not stated) : > 30 µM
23) O=C(O)CCCc1ccccc1 : > 10 µM
24) CCCCCN(C)CCC(O)(P(=O)(O)O)P(=O)(O)O : > 30 µM
25) CN1CC(=O)N2[C@H](c3ccc4c(c3)OCO4)c3[nH]c4ccccc4c3C[C@@H]2C1=O : > 30 µM
26) NS(=O)(=O)c1cc(-c2nnn[nH]2)c(NCc2cccs2)cc1Cl [AZOSEMIDE] : > 30 µM
27) COc1ccc2c(c1)C(=O)N(CCc1ccc(S(=O)(=O)NC(=O)NC3CCCCC3)cc1)C(=O)C2(C)C : > 30 µM
28) CCCCCCCCOc1ccccc1C(=O)Nc1ccc(C(=O)OCC[N+](C)(CC)CC)cc1 [OTILONIUM BROMIDE] : 5.3 µM
29) COc1ccc2c(c1)c(CC(=O)OCC(=O)O)c(C)n2C(=O)c1ccc(Cl)cc1 : > 30 µM
30) C#CCN(C)[C@H](C)Cc1ccccc1 : > 10 µM
31) CCC(C(=O)O)c1ccc(CC(C)C)cc1 (configuration not stated) : > 30 µM
32) NS(=O)(=O)c1cc(Cl)c(Cl)c(S(N)(=O)=O)c1 [DICHLORPHENAMIDE] : > 10 µM
33) CCCC(CCC)C(=O)O[C@H]1C[C@H]2CC[C@@H](C1)[N+]2(C)C : > 30 µM
34) CCCCCCC(C)(C)c1cc(O)c2c(c1)OC(C)(C)C1CCC(=O)CC21 (configuration not stated) : 9.1 µM
35) COC(=O)N[C@H](C(=O)N[C@@H](Cc1ccccc1)[C@@H](O)CN(Cc1ccc(-c2ccccn2)cc1)NC(=O)[C@@H](NC(=O)OC)C(C)(C)C)C(C)(C)C : > 30 µM
36) CCCCOc1cc(C(=O)NCCN(CC)CC)c2ccccc2n1 : > 30 µM
37) COC(=O)[C@@H]1CC2=CC(=O)CC[C@]2(C)[C@@]23O[C@@H]2C[C@@]2(C)[C@@H](CC[C@@]24CCC(=O)O4)[C@H]13 : > 30 µM

====

# system: Progesterone receptor (Homo sapiens, UniProt P06401)
# Sequence (P06401 whole entry): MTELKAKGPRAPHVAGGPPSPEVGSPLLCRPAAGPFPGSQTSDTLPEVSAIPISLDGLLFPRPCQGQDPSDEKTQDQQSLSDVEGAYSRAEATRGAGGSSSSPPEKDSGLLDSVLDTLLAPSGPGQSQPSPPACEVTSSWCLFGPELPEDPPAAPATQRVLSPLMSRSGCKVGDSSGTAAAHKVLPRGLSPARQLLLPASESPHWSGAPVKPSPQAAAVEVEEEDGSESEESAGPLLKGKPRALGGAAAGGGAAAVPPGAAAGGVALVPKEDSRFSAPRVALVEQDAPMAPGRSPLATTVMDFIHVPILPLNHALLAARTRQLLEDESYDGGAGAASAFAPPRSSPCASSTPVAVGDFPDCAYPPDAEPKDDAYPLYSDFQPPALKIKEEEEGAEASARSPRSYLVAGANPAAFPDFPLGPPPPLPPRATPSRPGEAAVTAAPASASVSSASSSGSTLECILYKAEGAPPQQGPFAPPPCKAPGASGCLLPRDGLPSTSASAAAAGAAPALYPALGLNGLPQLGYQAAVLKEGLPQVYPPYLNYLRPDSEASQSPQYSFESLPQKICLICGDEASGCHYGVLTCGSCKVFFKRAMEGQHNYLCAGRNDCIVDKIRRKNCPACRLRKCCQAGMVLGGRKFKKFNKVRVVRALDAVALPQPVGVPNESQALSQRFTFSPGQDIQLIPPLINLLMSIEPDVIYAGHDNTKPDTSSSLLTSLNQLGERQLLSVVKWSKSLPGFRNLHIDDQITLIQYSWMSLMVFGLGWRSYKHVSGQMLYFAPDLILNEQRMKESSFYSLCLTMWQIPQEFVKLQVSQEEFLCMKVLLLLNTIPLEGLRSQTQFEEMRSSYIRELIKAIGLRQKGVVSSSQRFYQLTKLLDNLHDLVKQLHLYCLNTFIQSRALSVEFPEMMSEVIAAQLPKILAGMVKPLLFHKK
# Type: functional
Below, each entry is listed with its recorded AC50.
endpointName: AC50

1) OCc1cc([C@@H](O)CNCCCCCCOCCOCc2c(Cl)cccc2Cl)ccc1O : > 30 µM
2) NS(=O)(=O)c1cc(Cl)c(Cl)c(S(N)(=O)=O)c1 [DICHLORPHENAMIDE] : > 10 µM
3) Cc1nc2ccc(CN(C)c3ccc(C(=O)N[C@@H](CCC(=O)O)C(=O)O)s3)cc2c(=O)[nH]1 : > 30 µM
4) COc1ccc(C(=O)NCc2ccc(OCCN(C)C)cc2)cc1OC [ITOPRIDE] : > 30 µM
5) O=C(CCCCCCC(=O)Nc1ccccc1)NO : > 30 µM
6) Cc1ccc(-c2nc3ccc(C)cn3c2CC(=O)N(C)C)cc1 : > 30 µM
7) O=C(O)Cc1cn(-c2ccccc2)nc1-c1ccc(Cl)cc1 : > 30 µM
8) O=P(O)(O)C(O)(Cc1cccnc1)P(=O)(O)O : > 30 µM
9) C#CCN[C@@H]1CCc2ccccc21 : > 30 µM
10) CCCOc1ccc(C(=O)OCCN(CC)CC)cc1N : > 30 µM
11) CC[C@H](C)C(=O)O[C@H]1C[C@H](O)C=C2C=C[C@H](C)[C@H](CC[C@@H](O)C[C@@H](O)CC(=O)O)[C@H]21 : > 30 µM
12) NC[C@H]1CC[C@H](C(=O)O)CC1 : > 10 µM
13) CC(C)C(=O)OCC(=O)[C@@]12O[C@H](C3CCCCC3)O[C@@H]1C[C@H]1[C@@H]3CCC4=CC(=O)C=C[C@]4(C)[C@H]3[C@@H](O)C[C@@]12C [CICLESONIDE] : 7.1 µM
14) O=C(OCCN1CCOCC1)c1cccnc1Nc1cccc(C(F)(F)F)c1 [MORNIFLUMATE] : > 30 µM
15) O=C(C[S+]([O-])C(c1ccccc1)c1ccccc1)NO (stereo unspecified) : > 30 µM
16) CC(C)Cc1ccc(CC(=O)O)cc1 : > 30 µM
17) CCCC(=O)N1CCCN(c2nc(N)c3cc(OC)c(OC)cc3n2)CC1 : > 30 µM
18) [H]/N=C(/N)c1ccc(NCc2nc3cc(C(=O)N(CCC(=O)O)c4ccccn4)ccc3n2C)cc1 : > 30 µM
19) CS(=O)(=O)c1ccc([C@@H](O)[C@@H](CO)NC(=O)C(Cl)Cl)cc1 : > 30 µM
20) O=C(CCCCC(=O)Nc1c(I)cc(I)c(C(=O)O)c1I)Nc1c(I)cc(I)c(C(=O)O)c1I [IODIPAMIDE] : > 10 µM
21) NC(=O)c1cnccn1 [PYRAZINAMIDE] : > 30 µM
22) Nc1ncnc2c1ncn2[C@@H]1O[C@H](COP(=O)(O)O)[C@@H](O)[C@H]1O [ADENOSINE PHOSPHATE] : > 30 µM
23) Nc1nc2ccc(OC(F)(F)F)cc2s1 : > 30 µM
24) C[C@H]1C[C@@H]2[C@H]([C@@H](O)C[C@@]3(C)[C@H]2CC[C@]3(O)C(=O)CO)[C@@]2(C)C=CC(=O)C=C12 : 1.3 µM
25) CN1CC[C@]23CCCC[C@H]2[C@H]1Cc1ccc(O)cc13 : > 10 µM
26) CCCCCN(C)CCC(O)(P(=O)(O)O)P(=O)(O)O : > 30 µM
27) O=C(O)CCn1c2c(c3ccccc31)C[C@H](NS(=O)(=O)c1ccc(F)cc1)CC2 : > 30 µM
28) CC(C)(Oc1ccc(C2CC2(Cl)Cl)cc1)C(=O)O (stereo unspecified) [CIPROFIBRATE] : > 30 µM
29) C#CCN(C)[C@H](C)Cc1ccccc1 : > 10 µM
30) Cc1cc2c(OCC(CNC(C)(C)C)OC(=O)c3ccccc3)cccc2[nH]1 (stereo unspecified) : > 30 µM
31) CC(C(O)c1ccc(O)cc1)N1CCC(Cc2ccccc2)CC1 (stereo unspecified) : > 30 µM
32) CC(C)C(=O)Nc1ccc([N+](=O)[O-])c(C(F)(F)F)c1 [FLUTAMIDE] : > 10 µM
33) C=C1CC[C@@]2(O)[C@H]3Cc4ccc(O)c5c4[C@@]2(CCN3CC2CC2)[C@H]1O5 : > 30 µM
34) CCCS(=O)(=O)Nc1ccc(F)c(C(=O)c2c[nH]c3ncc(-c4ccc(Cl)cc4)cc23)c1F : 23 µM
35) Cc1ccc(C(=O)c2cc(O)c(O)c([N+](=O)[O-])c2)cc1 : > 30 µM
36) NS(=O)(=O)c1cc(-c2nnn[nH]2)c(NCc2cccs2)cc1Cl [AZOSEMIDE] : > 30 µM
